Each recorded value in this set is attributed to ChEMBL document CHEMBL3608292.

target: Polyunsaturated fatty acid 5-lipoxygenase (Homo sapiens, UniProt P09917); test: Inhibition of 5-LO in ionophore A23187-stimulated human PMNL using arachidonic acid as substrate assessed as formation of LTB4, 5(S),12(S)-DiHETE, 5-H(p)ETE preincubated for 15 mins followed by substrate and ionophore addition measured after 10 mins by HPLC analysis
Sequence (P09917 whole entry): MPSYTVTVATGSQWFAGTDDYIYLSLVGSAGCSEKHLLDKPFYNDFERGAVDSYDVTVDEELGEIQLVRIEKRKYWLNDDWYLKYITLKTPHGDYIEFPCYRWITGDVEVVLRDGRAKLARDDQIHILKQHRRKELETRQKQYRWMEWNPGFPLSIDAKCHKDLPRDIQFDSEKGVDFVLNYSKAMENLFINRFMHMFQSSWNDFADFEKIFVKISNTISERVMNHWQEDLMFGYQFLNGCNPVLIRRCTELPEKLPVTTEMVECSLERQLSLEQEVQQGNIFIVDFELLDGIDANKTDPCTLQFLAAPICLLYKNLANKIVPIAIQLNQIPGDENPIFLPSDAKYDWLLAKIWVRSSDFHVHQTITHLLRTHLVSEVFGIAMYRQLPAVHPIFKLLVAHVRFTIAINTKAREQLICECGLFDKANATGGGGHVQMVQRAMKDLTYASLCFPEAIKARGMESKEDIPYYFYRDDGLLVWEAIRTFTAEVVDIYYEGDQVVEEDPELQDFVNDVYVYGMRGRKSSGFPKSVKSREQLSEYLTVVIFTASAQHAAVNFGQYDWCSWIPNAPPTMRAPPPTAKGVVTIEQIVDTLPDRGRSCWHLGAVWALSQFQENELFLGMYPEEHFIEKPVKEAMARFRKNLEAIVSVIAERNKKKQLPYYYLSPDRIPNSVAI
pIC50: −log10 of the molar value.
reported-endpoint: pIC50

{"compound": "CCCCCC(=O)c1c(O)c([C@@H](CC(C)C)C2=C(O)C(C)(C)C(=O)C(C)(C)C2=O)c(O)c([C@H](C2=C(O)C(C)(C)C(=O)C(C)(C)C2=O)C(C)C)c1O", "readout-value": 5.89}
{"compound": "CCCCCC(=O)c1c(O)cc(O)c2c1OC1=C(C(=O)C(C)(C)C(=O)C1(C)C)C2C(C)C (stereo not drawn)", "readout-value": 5.80}
{"compound": "O=C1C(C(c2ccccc2)c2c(O)c(C(=O)c3ccccc3)c(O)c(C(C3=C(O)c4ccccc4C3=O)c3ccccc3)c2O)=C(O)c2ccccc21 (stereo not drawn)", "readout-value": 5.74}

====

molecular target: Polyunsaturated fatty acid 5-lipoxygenase (Homo sapiens); assay: Inhibition of 5-LO in human PMNL using arachidonic acid as substrate preincubated for 10 mins followed by substrate addition measured after 10 mins by HPLC analysis
reported-endpoint: IC50 (nM)
Your answer is read as nM, so omit the unit and give the number.

Measured IC50 of CC(C)C(=O)c1c(O)c([C@H](C2=C(O)C(C)(C)C(=O)C(C)(C)C2=O)C(C)C)c(O)c([C@H](C2=C(O)C(C)(C)C(=O)C(C)(C)C2=O)C(C)C)c1O [MYRTUCOMMULONE A] : 1800

====

target: Polyunsaturated fatty acid 5-lipoxygenase (Homo sapiens); experiment: Inhibition of recombinant human 5-LO expressed in Escherichia coli BL21 using arachidonic acid as substrate assessed as formation of all-trans isomer of LTB4, 5-H(P)ETE preincubated for 5 to 10 mins followed by substrate addition measured after 10 mins by HPLC analysis
pIC50: −log10 of the molar value.
reported-endpoint: pIC50

Past entries and their recorded results:
{"compound": "CCCCCC(=O)c1c(O)c(C(C2=C(O)c3ccccc3C2=O)c2ccccc2)c(O)c(C(C2=C(O)c3ccccc3C2=O)c2ccccc2)c1O (centres undefined)", "readout-value": 6.34}
{"compound": "CC(C)CC(=O)c1c(O)cc(O)c(C(CC(C)C)C2=C(O)C(C)(C)C(=O)C(C)(C)C2=O)c1O (centres undefined)", "readout-value": 5.34}
{"compound": "CC(C)C(=O)c1c(O)cc(O)c2c1OC1=C(C(=O)C(C)(C)C(=O)C1(C)C)[C@@H]2C(C)C", "readout-value": 5.21}
{"compound": "CCCCCC(=O)c1c(O)cc(O)c2c1OC1=C(C(=O)C(C)(C)C(=O)C1(C)C)C2C(C)C (centres undefined)", "readout-value": 5.60}
{"compound": "CC(C)C(=O)c1c(O)c(C(C2=C(O)c3ccccc3C2=O)c2ccccc2)c(O)c(C(C2=C(O)c3ccccc3C2=O)c2ccccc2)c1O (centres undefined)", "readout-value": 6.14}
{"compound": "CC(C)CC(=O)c1c(O)c(C(C2=C(O)c3ccccc3C2=O)C(C)C)c(O)c(C(C2=C(O)c3ccccc3C2=O)C(C)C)c1O (centres undefined)", "readout-value": 5.51}

I = CC(C)CC(=O)c1c(O)c(C(CC(C)C)C2=C(O)C(C)(C)C(=O)C(C)(C)C2=O)c(O)c(C(CC(C)C)C2=C(O)C(C)(C)C(=O)C(C)(C)C2=O)c1O (centres undefined)
II = CC(C)C(C1=C(O)CC(C)(C)CC1=O)c1c(O)c(C(=O)c2ccccc2)c(O)c(C(C2=C(O)CC(C)(C)CC2=O)C(C)C)c1O (centres undefined)
III = CC(C)CC(=O)c1c(O)c(C(C2=C(O)c3ccccc3C2=O)c2ccccc2)c(O)c(C(C2=C(O)c3ccccc3C2=O)c2ccccc2)c1O (centres undefined)
IV = CC(C)C(=O)c1c(O)c([C@H](C2=C(O)C(C)(C)C(=O)C(C)(C)C2=O)C(C)C)c(O)c([C@H](C2=C(O)C(C)(C)C(=O)C(C)(C)C2=O)C(C)C)c1O
-- ask Order the records by pIC50, with each subsequent value no larger than the one before. List the labels in the requested order.
-- reply III, I, II, IV
